Target: 11β-HSD1 (Homo sapiens)
Assay: Biological Test Example 4: microsomal 11β-HSD1 in the presence of 50% human plasma
Conditions: IC50 in Test Example 4 divided by IC50 in Test Example 1
Tick TRUE if Shift is 8 or greater. Tick FALSE if Shift is less than 8.

Task: Hi team, for Cc1nccn1-c1ncc(-c2ccc([C@H](C)N3CC[C@](CC(C)(C)O)(c4ccccc4)OC3=O)cc2)cn1 , is the recorded Shift at or above 8?
Result: FALSE

Task: Hi team, for C[C@@H](c1ccc(-c2cncnc2)cc1)N1CC[C@](CCCO)(c2ccc(F)cc2)OC1=O , is the recorded Shift at or above 8?
Result: FALSE

Task: Hi team, for C[C@@H](c1ccc(-c2cccc(N(C)C)n2)cc1)N1CC[C@](CC(C)(C)O)(c2ccccc2)OC1=O , is the recorded Shift at or above 8?
Result: TRUE

Task: Hi team, for C=CC[C@]1(c2ccc(F)cc2)CCN([C@@H](C)c2ccc(-c3sc(C)nc3C)cc2)C(=O)O1 , is the recorded Shift at or above 8?
Result: TRUE

Task: Hi team, for Cc1ccc(-c2ccc([C@H](C)N3CC[C@](CCCO)(c4ccc(F)cc4)OC3=O)cc2)c(C)n1 , is the recorded Shift at or above 8?
Result: FALSE

----------
Target: 11β-HSD1 (Homo sapiens, UniProt P28845)
Sequence (P28845 whole entry): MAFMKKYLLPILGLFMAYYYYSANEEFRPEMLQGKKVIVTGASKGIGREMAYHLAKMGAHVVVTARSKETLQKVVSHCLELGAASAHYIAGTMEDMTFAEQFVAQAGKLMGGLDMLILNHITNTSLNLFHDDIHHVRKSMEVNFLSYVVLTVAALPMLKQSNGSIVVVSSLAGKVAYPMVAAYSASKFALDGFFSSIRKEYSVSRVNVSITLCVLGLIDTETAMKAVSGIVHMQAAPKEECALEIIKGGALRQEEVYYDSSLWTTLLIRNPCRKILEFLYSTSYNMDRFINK
Experiment: biochemical
Settings: Biological Test Example 1 IC50 (nM)
For each entry below, report its IC50 value.
Write the number in nM without appending the unit.

Task: Consider the compound C[C@@H](c1ccc(-c2ccccn2)cc1)N1CC[C@](CC(C)(C)O)(c2ccccc2)OC1=O [EXAMPLE 86] and give its measured IC50.
Result: 0.6

Task: Consider the compound C[C@@H](c1ccc(-c2ccccn2)cc1)N1CC[C@](CCC(N)=O)(c2ccccc2)OC1=O [EXAMPLE 88] and give its measured IC50.
Result: 1.7

Task: Consider the compound C[C@@H](c1ccc(-c2cccc(N(C)C)n2)cc1)N1CC[C@](CC(C)(C)O)(c2ccccc2)OC1=O [EXAMPLE 30] and give its measured IC50.
Result: 0.9

Task: Consider the compound C[C@@H](c1ccc(-c2cnc(C(=O)NC3CC3)nc2)cc1)N1CC[C@](CC(C)(C)O)(c2ccccc2)OC1=O [EXAMPLE 15] and give its measured IC50.
Result: 1.7

Task: Consider the compound C[C@@H](c1ccc(-c2cccnc2)cc1)N1CC[C@](CCCNS(C)(=O)=O)(c2ccccc2)OC1=O [EXAMPLE 91] and give its measured IC50.
Result: 1.4

Task: Consider the compound Cc1cc(-c2ccc([C@H](C)N3CC[C@](CCN4CCCS4(=O)=O)(c4ccccc4)OC3=O)cc2)ccn1 [EXAMPLE 105] and give its measured IC50.
Result: 19.2

Task: Consider the compound C=CC[C@]1(c2ccc(F)cc2)CCN([C@@H](C)c2ccc(-n3ccc(C(F)(F)F)n3)cc2)C(=O)O1 [EXAMPLE 43] and give its measured IC50.
Result: 8.6

----------
Biological target: 11β-HSD1 (Homo sapiens, UniProt P28845)
Assay: biochemical
Conditions: Biological Test Example 1 IC50 (nM)
observed property: log10 IC50 (log10 of the value in nM)
Record value = log10 of IC50 given in nM.

Task: Consider the compound C[C@@H](c1ccc(-c2ccc(OCC(C)(C)O)nc2)cc1)N1CC[C@](CC(C)(C)O)(c2ccccc2)OC1=O and give its measured log10 IC50.
Result: 0.00

Task: Consider the compound C[C@@H](c1ccc(-c2nccs2)cc1)N1CC[C@](CCCO)(c2ccc(F)cc2)OC1=O and give its measured log10 IC50.
Result: 0.26

Task: Consider the compound Cc1cc(-c2ccc([C@H](C)N3CC[C@](CC(C)(C)O)(c4ccc(F)cc4)OC3=O)cc2)cc(C)[n+]1[O-] and give its measured log10 IC50.
Result: 0.82

Task: Consider the compound Cc1cc(-c2ccc([C@H](C)N3CC[C@](CCO)(c4ccccc4)OC3=O)cc2)ccn1 and give its measured log10 IC50.
Result: -0.15

Task: Consider the compound C[C@@H](c1ccc(-c2ccc(F)cn2)cc1)N1CC[C@](CCCO)(c2ccccc2)OC1=O and give its measured log10 IC50.
Result: -0.30

Task: Consider the compound C[C@@H](c1ccc(-c2cnc(C(C)(C)O)nc2)cc1)N1CC[C@](CC(C)(C)O)(c2ccccc2)OC1=O and give its measured log10 IC50.
Result: 0.68

Task: Consider the compound C[C@@H](c1ccc(-c2cc(C#N)ccn2)cc1)N1CC[C@](CC(C)(C)O)(c2ccccc2)OC1=O and give its measured log10 IC50.
Result: 0.08

Task: Consider the compound C[C@@H](c1ccc(-c2ccncn2)cc1)N1CC[C@](CC(C)(C)O)(c2ccccc2)OC1=O and give its measured log10 IC50.
Result: 0.34

Task: Consider the compound C[C@@H](c1ccc(-c2ccccn2)cc1)N1CC[C@](CCO)(c2ccc(F)cc2)OC1=O and give its measured log10 IC50.
Result: 0.00

Task: Consider the compound C[C@@H](c1ccc(-c2ncccc2C#N)cc1)N1CC[C@](CC(C)(C)O)(c2ccccc2)OC1=O and give its measured log10 IC50.
Result: 0.38

Task: Consider the compound Cc1cc(-c2ccc([C@H](C)N3CC[C@](CC(C)(C)O)(c4ccccc4)OC3=O)cc2)cc(C)[n+]1[O-] and give its measured log10 IC50.
Result: 0.36

Task: Consider the compound C[C@@H](c1ccc(-c2cncc(F)c2)cc1)N1CC[C@](CCCO)(c2ccc(F)cc2)OC1=O and give its measured log10 IC50.
Result: -0.15

Task: Consider the compound C[C@@H](c1ccc(-c2ccc(C(=O)NC3CC3)nn2)cc1)N1CC[C@](CC(C)(C)O)(c2ccccc2)OC1=O and give its measured log10 IC50.
Result: 0.40

Task: Consider the compound C[C@@H](c1ccc(-c2cccnn2)cc1)N1CC[C@](CCCO)(c2ccc(F)cc2)OC1=O and give its measured log10 IC50.
Result: 0.79

Task: Consider the compound C[C@@H](c1ccc(-c2ccc(S(C)(=O)=O)nc2)cc1)N1CC[C@](CC(C)(C)O)(c2ccccc2)OC1=O and give its measured log10 IC50.
Result: -0.03

Task: Consider the compound Cc1cccc(-c2ccc([C@H](C)N3CC[C@](CCCO)(c4ccccc4)OC3=O)cc2)n1 and give its measured log10 IC50.
Result: -0.30

Task: Consider the compound C[C@@H](c1ccc(-c2cccnc2)cc1)N1CC[C@](CCC(N)=O)(c2ccc(F)cc2)OC1=O and give its measured log10 IC50.
Result: 0.28

Task: Consider the compound COc1ccc(-c2ccc([C@H](C)N3CC[C@](CCO)(c4ccc(F)cc4)OC3=O)cc2)cn1 and give its measured log10 IC50.
Result: -0.10

Task: Consider the compound C[C@@H](c1ccc(-c2ccncc2)cc1)N1CC[C@](CCC(N)=O)(c2ccc(F)cc2)OC1=O and give its measured log10 IC50.
Result: 0.15

Task: Consider the compound C[C@@H](c1ccc(-c2ccc(C(=O)N(C)C)cn2)cc1)N1CC[C@](CC(C)(C)O)(c2ccccc2)OC1=O and give its measured log10 IC50.
Result: 0.04

Task: Consider the compound C[C@@H](c1ccc(-c2ccc(C(=O)NC(C)(C)C)cn2)cc1)N1CC[C@](CC(C)(C)C#N)(c2ccccc2)OC1=O and give its measured log10 IC50.
Result: 0.00

Task: Consider the compound C[C@@H](c1ccc(-c2ccc(C(F)(F)F)nc2)cc1)N1CC[C@](CCCO)(c2ccc(F)cc2)OC1=O and give its measured log10 IC50.
Result: -0.15

Task: Consider the compound C[C@@H](c1ccc(-c2ccc(C(=O)NC(C)(C)C)cn2)cc1)N1CC[C@](CC(C)(C)O)(c2ccccc2)OC1=O and give its measured log10 IC50.
Result: 0.20

Task: Consider the compound COc1ccc(-c2ccc([C@H](C)N3CC[C@](CC(C)(C)O)(c4ccc(F)cc4)OC3=O)cc2)cn1 and give its measured log10 IC50.
Result: -0.10
